# assay.method.text: Rat dose-range PK study (dose escalation pharmacokinetics)
# Format: in vivo
# measurement.setup: male, SD, plasma, PO, dose 3 mg, read-out: AUC24 hr
A collection of compounds and their measured AUC(0-t)
Give your result as the value with the unit written after it.

These recorded examples may help you get a feel for the data.
>>> observed_measurement("COc1c(Nc2ccc(S(C)(=O)=O)nc2C)ncnc1OC1CCN(c2nc(C(C)C)no2)CC1 [Compound G]")
"1660 ng·h/mL"
>>> observed_measurement("COc1c(Nc2ccc(-n3cncn3)nc2C)ncnc1OC1CCN(C(=O)OC(C)C)CC1 [Compound of Formula (I)]")
"3590 ng·h/mL"
>>> observed_measurement("Cc1nc(S(C)(=O)=O)ccc1Nc1ncnc(OC2CCN(C(=O)OC(C)C)CC2)c1C [Compound E]")
"4730 ng·h/mL"

Proceeding to the next compound to report its AUC(0-t).
Enquiry: I have this compound here, COc1c(Nc2cnc(S(C)(=O)=O)cc2C)ncnc1OC1CCN(C(=O)OC(C)C)CC1 [Compound D] , and I need its recorded AUC(0-t).
Return: 5600 ng·h/mL

Every entry's value here was drawn from patent US20090286816A1.
